Catalogue of molecules with associated relative viability
Tested on: A-427
Test: relative viability (nuclei count vs DMSO), 5 days (fraction); higher = more cells survive
Settings: first compound 2.53 µM
// return just the number, without any unit appended

molecule: O=c1cc(-c2cccc3c2Sc2ccccc2S3)oc(N2CCOCC2)c1 + Cc1nc(NC(=O)N2CCC[C@H]2C(N)=O)sc1-c1ccnc(C(C)(C)C(F)(F)F)c1 [Alpelisib] (partner 2 µM)
relative viability: 0.987

Ask: So what does the record say about relative viability for COc1nc(C)cnc1NS(=O)(=O)c1cccnc1-c1ccc(-c2nnco2)cc1 [Zibotentan] + CC(=O)c1c(C)c2cnc(Nc3ccc(N4CCNCC4)cn3)nc2n(C2CCCC2)c1=O [Palbociclib] (partner 0.5 µM) ?
Reply: 0.559

Ask: So what does the record say about relative viability for O=c1cc(-c2cccc3c2Sc2ccccc2S3)oc(N2CCOCC2)c1 + NC(=O)Nc1cc(-c2cccc(F)c2)sc1C(=O)N[C@H]1CCCNC1 [AZD7762] (partner 0.2 µM) ?
Reply: 0.41

Ask: So what does the record say about relative viability for COc1nc(C)cnc1NS(=O)(=O)c1cccnc1-c1ccc(-c2nnco2)cc1 [Zibotentan] + C[C@@H](Oc1cc(-c2cnn(C3CCNCC3)c2)cnc1N)c1c(Cl)ccc(F)c1Cl [Crizotinib] (partner 1 µM) ?
Reply: 0.84

Ask: So what does the record say about relative viability for COc1nc(C)cnc1NS(=O)(=O)c1cccnc1-c1ccc(-c2nnco2)cc1 [Zibotentan] + Cc1cc(Nc2cc(N3CCN(C)CC3)nc(Sc3ccc(NC(=O)C4CC4)cc3)n2)n[nH]1 [Tozasertib] (partner 0.1 µM) ?
Reply: 0.258

Ask: So what does the record say about relative viability for COc1nc(C)cnc1NS(=O)(=O)c1cccnc1-c1ccc(-c2nnco2)cc1 [Zibotentan] + COc1cc2c(Oc3ccc(NC(=O)C4(C(=O)Nc5ccc(F)cc5)CC4)cc3F)ccnc2cc1OCCCN1CCOCC1 [Foretinib] (partner 0.25 µM) ?
Reply: 1.19

Ask: So what does the record say about relative viability for O=c1cc(-c2cccc3c2Sc2ccccc2S3)oc(N2CCOCC2)c1 + CC(=O)Nc1cccc(-n2c(=O)n(C3CC3)c(=O)c3c(Nc4ccc(I)cc4F)n(C)c(=O)c(C)c32)c1 [Trametinib] (partner 0.02 µM) ?
Reply: 0.709

Ask: So what does the record say about relative viability for O=c1cc(-c2cccc3c2Sc2ccccc2S3)oc(N2CCOCC2)c1 + CC(=O)c1c(C)c2cnc(Nc3ccc(N4CCNCC4)cn3)nc2n(C2CCCC2)c1=O [Palbociclib] (partner 0.5 µM) ?
Reply: 0.502

Ask: So what does the record say about relative viability for O=c1cc(-c2cccc3c2Sc2ccccc2S3)oc(N2CCOCC2)c1 + CS(=O)(=O)CCNCc1ccc(-c2ccc3ncnc(Nc4ccc(OCc5cccc(F)c5)c(Cl)c4)c3c2)o1 [Lapatinib] (partner 2 µM) ?
Reply: 0.868

* * *

System: HOP-62
Test: relative viability (nuclei count vs DMSO), 5 days (fraction); higher = more cells survive
Details: first compound 0.3162 µM
recorded.endpoint: relative viability
// return just the number, without any unit appended

Solved entries:
compound: O=c1cc(N2CCOCC2)oc2c(-c3cccc4c3sc3ccccc34)cccc12 + O=C(c1cc(Cc2n[nH]c(=O)c3ccccc23)ccc1F)N1CCN(C(=O)C2CC2)CC1 [Olaparib] (partner 8 µM)
recorded.value: 0.523
//
compound: CCN(CC)CCCCNc1ncc2cc(-c3cc(OC)cc(OC)c3)c(NC(=O)NC(C)(C)C)nc2n1 + CC1(C)CCC(c2ccc(Cl)cc2)=C(CN2CCN(c3ccc(C(=O)NS(=O)(=O)c4ccc(N[C@H](CCN5CCOCC5)CSc5ccccc5)c(S(=O)(=O)C(F)(F)F)c4)cc3)CC2)C1 [Navitoclax] (partner 0.5 µM)
recorded.value: 0.974
//
compound: O=c1cc(N2CCOCC2)oc2c(-c3cccc4c3sc3ccccc34)cccc12 + O=C(CCCCCCC(=O)Nc1ccccc1)NO [Vorinostat] (partner 1 µM)
recorded.value: 0.605

Ask: Lookup: relative viability / HOP-62 / CCN(CC)CCCCNc1ncc2cc(-c3cc(OC)cc(OC)c3)c(NC(=O)NC(C)(C)C)nc2n1 + Nc1ncn([C@H]2C[C@H](O)[C@@H](CO)O2)c(=O)n1 [Decitabine] (partner 2 µM)
Reply: 0.207
